Ref: patent US11046714B2

Each entry below lists one item and its recorded Ki value.
Target: human A2A receptor (Homo sapiens (Human), UniProt P29274)
Sequence (P29274 whole entry): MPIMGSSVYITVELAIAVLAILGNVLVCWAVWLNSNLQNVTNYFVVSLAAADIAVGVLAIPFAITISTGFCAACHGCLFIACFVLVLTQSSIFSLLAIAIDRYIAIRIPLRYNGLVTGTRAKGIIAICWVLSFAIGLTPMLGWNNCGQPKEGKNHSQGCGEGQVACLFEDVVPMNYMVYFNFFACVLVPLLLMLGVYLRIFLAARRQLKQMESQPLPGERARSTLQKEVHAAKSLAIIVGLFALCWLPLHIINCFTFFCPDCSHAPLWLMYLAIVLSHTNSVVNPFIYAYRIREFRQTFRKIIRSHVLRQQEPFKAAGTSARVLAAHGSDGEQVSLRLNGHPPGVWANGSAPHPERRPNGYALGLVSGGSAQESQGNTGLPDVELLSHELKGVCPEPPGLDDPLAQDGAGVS
Your answer should be a plain number; it is taken to be in nM.

Given the entry "Nc1nc2c3c(ccc2c2nc(CCN4CCCC45CCNCC5)nn12)OC(F)(F)O3" , what Ki was observed with human A2A receptor (Homo sapiens (Human), UniProt P29274)?
22

Enter reported Ki observed with human A2A receptor (Homo sapiens (Human), UniProt P29274) for "Nc1nc2c3c(ccc2c2nc(CC(CCl)CCl)nn12)OC(F)(F)O3"
2.3

Look up Ki with human A2A receptor (Homo sapiens (Human), UniProt P29274) for this compound: Nc1nc2c3c(ccc2c2nc(CCN4CCCC(O)(C(F)(F)F)C4)nn12)OC(F)(F)O3 (single isomer, unassigned)
5.2
